So I've got a bunch of binders here, and I need their NKL Ortho Proliferation Signal 1:10 values.
# studyTarget: T1, orthogonal hCD122 receptor (hoRb), hCD122 with H133D and Y134F (human, UniProt P14784 27-550)
# T1 sequence: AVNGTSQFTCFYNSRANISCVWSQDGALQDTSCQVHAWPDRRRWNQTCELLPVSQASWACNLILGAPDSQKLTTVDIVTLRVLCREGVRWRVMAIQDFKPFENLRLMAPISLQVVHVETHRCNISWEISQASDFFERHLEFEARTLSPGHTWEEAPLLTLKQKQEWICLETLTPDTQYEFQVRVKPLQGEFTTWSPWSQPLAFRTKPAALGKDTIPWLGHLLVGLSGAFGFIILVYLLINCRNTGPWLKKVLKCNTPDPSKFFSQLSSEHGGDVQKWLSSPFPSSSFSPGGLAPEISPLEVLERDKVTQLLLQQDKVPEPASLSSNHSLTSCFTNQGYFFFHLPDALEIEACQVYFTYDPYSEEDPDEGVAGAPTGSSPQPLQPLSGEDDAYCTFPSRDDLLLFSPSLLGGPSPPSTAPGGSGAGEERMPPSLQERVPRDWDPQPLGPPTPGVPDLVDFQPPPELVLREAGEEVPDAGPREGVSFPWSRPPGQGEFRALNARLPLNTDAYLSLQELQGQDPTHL
# testSummary: cell-based or functional assay
The response must contain the number and no unit.

Input T51I, SQVLKA (ligand) APTSSSTKKTQLQLSQLLVLLKAILNGINNYKNPKLTRMLTFKFYMPKKAIELKHLQCLEEELKPLEEVLNLAQSKNFHLRPRDLISNINVIVLELKGSETTFMCEYADETATIVEFLNRWITFCQSIISTLT , output reported NKL Ortho Proliferation Signal 1:10.
37900

Specify NKL Ortho Proliferation Signal 1:10 for T3N, SQVLKA (ligand) APNSSSTKKTQLQLSQLLVLLKAILNGINNYKNPKLTRMLTFKFYMPKKATELKHLQCLEEELKPLEEVLNLAQSKNFHLRPRDLISNINVIVLELKGSETTFMCEYADETATIVEFLNRWITFCQSIISTLT and stop.
65700

Tell us which NKL Ortho Proliferation Signal 1:10 value is on record for G27S, SQVLKA (ligand) APTSSSTKKTQLQLSQLLVLLKAILNSINNYKNPKLTRMLTFKFYMPKKATELKHLQCLEEELKPLEEVLNLAQSKNFHLRPRDLISNINVIVLELKGSETTFMCEYADETATIVEFLNRWITFCQSIISTLT
41000

Recorded values, source patent US20210196796A1.
